For each entry below, report its Maximum intraocular pressure reduction degree value.
# Tested on: intraocular pressure
# test_method_notes: Test for intraocular pressure reduction using cynomolgus monkeys
# Assay type: in vivo
# assay_conditions: male cynomolgus monkeys; 0.1% (w/v) test liquid instilled into one eye twice a day for 7 days; maximum over 2, 4, 6, 8 h after administration (Compound B: pH 7, 1, 2, 4, 6 h); average of 5 to 6 cases
Numbers only, in mmHg.

> print(dat)
                                   molecule    measurement.target  display.unit  quantitative.readout
1  CCNC(=O)[C@H]1O[C@@H](n2cnc3c(N)nc(C#CCC4CCN(C(=O)OC(C)C)CC4)nc32)[C@H](O)[C@@H]1O  intraocular pressure          mmHg                   2.9

Give Maximum intraocular pressure reduction degree for each listed item.
1. COC(=O)N1CCC(CC#Cc2nc(N)c3ncn([C@@H]4O[C@H](C(=O)NC5CC5)[C@@H](O)[C@H]4O)c3n2)CC1
2. CCNC(=O)[C@H]1O[C@@H](n2cnc3c(N)nc(C#CCC4CCN(C(=O)OCC)CC4)nc32)[C@H](O)[C@@H]1O
3. Nc1nc(C#CCC2CCN(C(=O)Oc3ccc(F)cc3)CC2)nc2c1ncn2[C@@H]1O[C@H](C(=O)NC2CC2)[C@@H](O)[C@H]1O
4. COc1ccccc1OC(=O)N1CCC(CC#Cc2nc(N)c3ncn([C@@H]4O[C@H](C(=O)NC5CC5)[C@@H](O)[C@H]4O)c3n2)CC1
5. Nc1nc(C#CCC2CCN(C(=O)Oc3ccc(F)c(F)c3)CC2)nc2c1ncn2[C@@H]1O[C@H](C(=O)NC2CC2)[C@@H](O)[C@H]1O

1. 4.9
2. 2.9
3. 2.7
4. 2.7
5. 1.8
